Test system: Saccharomyces cerevisiae
method.description: transcriptional activation domain activity (GFP:mCherry ratio, weighted mean of sorted bins, harmonized to initial dataset scale) (arbitrary fluorescence ratio units); higher = stronger transcriptional activation
test.conditions: beta-estradiol 1 µM; induction time 4 h
Entries are sorted into classes by transcriptional activation domain activity as follows: 0 (below 40000), 1 (40000 to below 60000), 2 (60000 or more)

# sequence.content, qualitative.label
data = [
    ("PNIHSLHSLYTFRFLHIHSFHNLFFLPFFYFLYSLCFLHLPCFLSFLRFLHLL", 2),
    ("NWHHSIQVPYSFVANYDHPVCHMLHRWLPLYIPAVALRMHILTYLLLVAFFSL", 1),
    ("PFLLLLPVSLFSFLFFHFFYLFVSFSFFLFCYFFYFLHFFLTFLIFLLFLTFL", 0),
    ("PVKAIEAPLAEEKSEEKEAEPEKAEEAEEEVTEKPAAKKAKGGKKGAKGKKVK", 1),
    ("MLTLLLLTLIIFLSSTLVLLFFFLIPLFLICLLTFLLIFFSSPRAFFSFPHPT", 1),
    ("DRRYRISRGGSRMNQVVENTVSRWVGMLPTWRCGLLLHAFVHLKKVYWCPFLR", 2),
    ("TWKVIGLVWRCPELTEYLNKVILTIIIIRSESHFDSSIAALNESCLTPYGTVD", 0),
    ("ITLYPPNPYTNEPVPIRPISYLHLSGLLNMYVIRRLRRENWIRIFFRILFPFF", 0),
    ("SSPSIQTASSVSTVLVVGSNDKTVKDVGEGLKTKLGVKGGGKGPRWSGKFIGV", 0),
    ("HAEPGTGWACVKHTSDCTAVKKASGIPGRNFHRRPKYSVVVSAGERTWKAKQC", 1),
    ("MWTVLVGFIRGFLLLLWHLAYPFHFFLYFQLILSSHRLEWLISLFVDAMTGIA", 0),
    ("LLSGRLFLGFYAAKNILRLARAFAATRQVIYDLGKFYRSPLTAPDRIAHLFPS", 1),
    ("SSSEDESDEEDEEGLGSDVEIHDQAEPAEDVPAGEVSRRFAVVNLDWDHVRAV", 0),
    ("RKVGFILYVIMHMRINIVFAAFRLAKFNINPNSVYIKIINCVIKYLLKTMDYF", 1),
    ("FNIVAFGIIILDFWGMIGIWTQKFGFHHVWEVWLYQVYYGLFVCPWYSYSQIM", 2),
    ("AVLSLLCSLLNTTLKYNPASWRVPYDHVVFKDPKQILVTYCLQLLLVLILYPI", 0),
    ("MHITCPRLWGHCSWCVVLPFIFHTFLYCIPTFCCFLVHISAILFIGFSFLGSL", 1),
    ("GVLMCYYSRSHNFDVAKRHFQRILNLLPLLKSTPNIFPLYGLIFSTMGLLVLI", 2),
    ("RELEKREREREEREREERERELEKREREREQRGRELEKRERRGRRGSESWRRG", 0),
    ("VFTSLHTCRFAAPHLWWLIFSILCLQYLIILEVFVIAMLVFIIGPLIYLFWNI", 1),
    ("VWVCGFLVVYLFYTWGVLSFVFFQMLINHLSFINLFFFYILSSFIGGLTLNFF", 1),
    ("VLKALWSFAYTFGLFIFCNGSIYYFVARIFGSYYRVLDSPIVGFRWSNIHLFL", 1),
    ("DSDEEDESELETDSESETGGIPIHESLSGAKSEDADKNERTIFIGNITVTAVQ", 1),
    ("TWILNIPWPQTHMVAVLSLAGFLYFLILDIYEYMCYSYLVLLGTMWFVDIMFF", 2),
    ("RPFLLNCKDINQFTNLIWERIRITNGTKMYWVWQHLRCVVMFFTLQPNQRILL", 2),
    ("RRKEKKPRFAKKDKGSKEPVSKTCRIALRIKLCHGNICVMEVSLSVLASLVLH", 1),
    ("KHERDDEKERKHRKHDKPSKDKDGEDDDGEGRRHKKHRKHKERGSDDEDEHRK", 0),
    ("PLVVDFPQAVEYFPEMALKYMMCWLSRFDLLPGERLGCRVLAAFIHLTIHRVS", 1),
    ("AVEARFVTPQDPVLIQDDGSRLPPVPLEEAYKLNVLRREVIERAGSVAKAIEG", 2),
    ("HGSTLTTIMIQVSEVMILPSFFQELLDTIRTRCPRVVNFMIWFQVWNWMMVPV", 2),
    ("HALRTFVYKAAIIPISLFLVHFRRAFSCLCFCALSGFPRCHLTLLSIMFIFSL", 1),
    ("MWLFLLMFYIVLWLRKAGAFISSSFSSFSVLSFSYLFLCGYLPFSFLFLTFSL", 1),
    ("MCYQGQHVYLNHEVFAQSLLAVGFARCQVRLMWVAGIRPIVRVSTNNFLGSIR", 1),
    ("MMLWWRWRWILLLMLMLMLRWRWWWHTSLWWRWSKCLLTRLLLLLLLWWWDSF", 1),
]
